Test system: H9
Procedure summary: Anti-HIV activity was evaluated as the concentration required to inhibit HIV-1 replication in H9 lymphocyte cells by 50%
Assay type: functional, cell-based
Details: Homo sapiens
pEC50: −log10 of the molar value.
Property: pEC50

- Compound: "Cc1cc(=S)oc2c3c(ccc12)OC(C)(C)[C@H](OC(=O)C12CCC(C)(C(=O)O1)C2(C)C)[C@@H]3OC(=O)C12CCC(C)(C(=O)O1)C2(C)C (some centres undefined)"
  Property: "pEC50"
  Readout value: 8.14
- Compound: "CC1(C)Oc2ccc3c(-c4ccccc4)cc(=S)oc3c2[C@@H](OC(=O)C23CCC(C)(C(=O)O2)C3(C)C)[C@H]1OC(=O)C12CCC(C)(C(=O)O1)C2(C)C (some centres undefined)"
  Property: "pEC50"
  Readout value: 5.61
- Compound: "CCCc1cc(=S)oc2c3c(ccc12)OC(C)(C)[C@H](OC(=O)C12CCC(C)(C(=O)O1)C2(C)C)[C@@H]3OC(=O)C12CCC(C)(C(=O)O1)C2(C)C (some centres undefined)"
  Property: "pEC50"
  Readout value: 6.89
- Compound: "CC1(C)Oc2ccc3ccc(=S)oc3c2[C@@H](OC(=O)C23CCC(C)(C(=O)O2)C3(C)C)[C@H]1OC(=O)C12CCC(C)(C(=O)O1)C2(C)C (some centres undefined)"
  Property: "pEC50"
  Readout value: 7.54

* * *

Procedure summary: Therapeutic index value was evaluated as the ratio of IC50/EC50
Details: read-out: TI
Measured selectivity ratio accompanies every entry in the list below.

- Molecule: "Cc1cc(=S)oc2c3c(ccc12)OC(C)(C)[C@H](OC(=O)C12CCC(C)(C(=O)O1)C2(C)C)[C@@H]3OC(=O)C12CCC(C)(C(=O)O1)C2(C)C (stereo not given in full)"
  selectivity ratio: "> 21300"
- Molecule: "CC1(C)Oc2ccc3ccc(=O)oc3c2[C@@H](OC(=O)C23CCC(C)(C(=O)O2)C3(C)C)[C@H]1OC(=O)C12CCC(C)(C(=O)O1)C2(C)C (stereo not given in full)"
  selectivity ratio: 137000
- Molecule: "CC1(C)Oc2ccc3ccc(=S)oc3c2[C@@H](OC(=O)C23CCC(C)(C(=O)O2)C3(C)C)[C@H]1OC(=O)C12CCC(C)(C(=O)O1)C2(C)C (stereo not given in full)"
  selectivity ratio: "> 5390"
- Molecule: "CCCc1cc(=S)oc2c3c(ccc12)OC(C)(C)[C@H](OC(=O)C12CCC(C)(C(=O)O1)C2(C)C)[C@@H]3OC(=O)C12CCC(C)(C(=O)O1)C2(C)C (stereo not given in full)"
  selectivity ratio: "> 1150"
- Molecule: "CC1(C)Oc2ccc3c(-c4ccccc4)cc(=S)oc3c2[C@@H](OC(=O)C23CCC(C)(C(=O)O2)C3(C)C)[C@H]1OC(=O)C12CCC(C)(C(=O)O1)C2(C)C (stereo not given in full)"
  selectivity ratio: "> 56.6"
